For each of the compounds below, state its inhibition.
MEASURED ON: L-lactate dehydrogenase (Plasmodium falciparum (isolate CDC / Honduras)) (UniProt Q27743)
Sequence (Q27743 whole entry, looked up): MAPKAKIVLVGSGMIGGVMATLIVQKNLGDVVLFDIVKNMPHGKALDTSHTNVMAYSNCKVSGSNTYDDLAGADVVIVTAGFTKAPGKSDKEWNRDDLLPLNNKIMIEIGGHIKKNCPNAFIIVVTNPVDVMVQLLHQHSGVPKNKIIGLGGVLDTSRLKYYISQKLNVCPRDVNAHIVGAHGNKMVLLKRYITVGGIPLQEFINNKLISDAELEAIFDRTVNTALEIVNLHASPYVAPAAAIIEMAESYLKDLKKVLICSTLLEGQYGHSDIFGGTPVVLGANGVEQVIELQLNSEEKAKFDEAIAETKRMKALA
EXPERIMENTAL PROTOCOL: PfLDH activity inhibition – cell lysate, 3D7 strain, counter-screen for P. falciparum growth inhibition project (AID 2304);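 note: 0% = vehicle and 100% = reference inhibitor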
CONDITION SUMMARY: P. falciparum 3D7 crude extract, LDH APAD/NBT absorbance; at 2 µM; active compounds read high
Express it in %; write the number only.

[ask] What value of measured inhibition is listed for CCOc1ccc(-c2nonc2NC(=O)c2ccccc2)cc1OCC ?
[reply] 4

[ask] What value of measured inhibition is listed for Cc1ccc(NC(=O)c2ccc(CN3CCCN(CC4CCCCC4)CC3)cc2)cc1C ?
[reply] 3

[ask] What value of measured inhibition is listed for NC1=NC2(CCCCC2)N(OCCOc2ccc(Cc3ccccc3)cc2)C(N)=N1 ?
[reply] 2

[ask] What value of measured inhibition is listed for CC1(C)N=C(N)N=C(N)N1OCCOc1ccc2ccccc2c1 ?
[reply] 5

[ask] What value of measured inhibition is listed for Cc1ccc(C(=O)c2oc3ccc4c(C)cc(=O)oc4c3c2C)cc1 ?
[reply] 1

[ask] What value of measured inhibition is listed for O=C(NCC(CCCN1CCC(c2c[nH]c3ccccc23)CC1)c1ccccc1)Nc1ccc(Cl)c(Cl)c1 (stereo not given) ?
[reply] 1

[ask] What value of measured inhibition is listed for COc1cccc2cc(C(=O)N[C@@H](CC(C)C)C(=O)NC3CC[C@@H](C)N(C(=O)Nc4ccncc4)CC3=O)oc12 (stereo not given in full) ?
[reply] -7

[ask] What value of measured inhibition is listed for N#Cc1ccc(NC(=Nc2ccccc2Br)N(C2CCCCC2)C2CCCCC2)c(O)c1 ?
[reply] 4

[ask] What value of measured inhibition is listed for CN(C)CCOc1cc(O)c2c(c1)OC(C)(C)C=C2c1cccs1 ?
[reply] -2

[ask] What value of measured inhibition is listed for CNc1cc(-c2ccc3ccnc(N)c3c2)nc(N)n1 ?
[reply] -2

* * *

MEASURED ON: Plasmodium falciparum protein kinase 6 (PK6, PF3D7_1337100) (UniProt Q8IDW1)
Sequence (Q8IDW1 1-305): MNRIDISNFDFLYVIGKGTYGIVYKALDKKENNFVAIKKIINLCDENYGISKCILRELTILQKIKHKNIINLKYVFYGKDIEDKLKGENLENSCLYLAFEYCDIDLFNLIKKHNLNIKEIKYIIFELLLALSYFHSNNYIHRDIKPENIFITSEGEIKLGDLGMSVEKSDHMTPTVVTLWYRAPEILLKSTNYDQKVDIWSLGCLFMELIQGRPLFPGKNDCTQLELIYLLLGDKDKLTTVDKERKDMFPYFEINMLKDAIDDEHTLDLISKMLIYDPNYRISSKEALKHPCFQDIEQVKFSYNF
EXPERIMENTAL PROTOCOL: PfPK6 kinase inhibitors, biochemical, TCAMS library (AID 1159586)
CONDITION SUMMARY: recombinant PfPK6, Kinase-Glo ATP depletion luminescence
Potency and affinity values are given separately. Activity calls are given as the source filed them. How the calls were made is not given here.
MEASURED PARAMETER: outcome

[ask] What value of measured outcome is listed for OCC1CCN(Cc2ccc(-c3ccc(-c4nc5ccc(C(F)(F)F)cc5[nH]4)cc3)cc2)CC1 ?
[reply] inactive

[ask] What value of measured outcome is listed for O=C(Nc1ccccc1)N(Cc1cccc(-c2cccc(CNCCc3ccccc3)c2)c1)C1CCN(Cc2ccccc2)CC1 ?
[reply] inactive

[ask] What value of measured outcome is listed for O=C(/C=C/c1ccc(Cl)cc1)NCCCCCN1CCCC(C(=O)Nc2ccc(Cl)c(Cl)c2)C1 (centres undefined) ?
[reply] inactive

[ask] What value of measured outcome is listed for O=C(c1ccc(F)cc1)N1CCOC(CCN2CCC(c3ccccc3)CC2)(c2ccc(Cl)c(Cl)c2)C1 (centres undefined) ?
[reply] inactive

---
[ask] What value of measured outcome is listed for CC(C)CCN=C(N)Nc1ccc(OCCCCCOc2ccc(NC(N)=NCCC(C)C)cc2)cc1 ?
[reply] inactive

[ask] What value of measured outcome is listed for CN(C)Cc1c(O)ccc2[nH]c(-c3cccc(F)c3)nc12 ?
[reply] inactive

[ask] What value of measured outcome is listed for COc1ccc(CCN2CCC(Nc3nc4ccccc4n3CCc3ccc(OC)cc3)CC2)cc1 ?
[reply] inactive

[ask] What value of measured outcome is listed for Cn1nccc1C(=O)NCCNCc1ccc(-c2cccc(-c3nc4ccc(F)cc4[nH]3)c2)cc1 ?
[reply] inactive

[ask] What value of measured outcome is listed for CC1(C)CNCc2cc(NC(=O)/C=C/c3ccc(Cl)cc3)ccc21 ?
[reply] inactive
